biological target: 5-hydroxytryptamine receptor 2A (Rattus norvegicus, UniProt P14842); assay: Binding affinity against 5-hydroxytryptamine 2A receptor expressed NIH3T3 cells using [3H]ketanserin; format: cell-based
Sequence (P14842 whole entry): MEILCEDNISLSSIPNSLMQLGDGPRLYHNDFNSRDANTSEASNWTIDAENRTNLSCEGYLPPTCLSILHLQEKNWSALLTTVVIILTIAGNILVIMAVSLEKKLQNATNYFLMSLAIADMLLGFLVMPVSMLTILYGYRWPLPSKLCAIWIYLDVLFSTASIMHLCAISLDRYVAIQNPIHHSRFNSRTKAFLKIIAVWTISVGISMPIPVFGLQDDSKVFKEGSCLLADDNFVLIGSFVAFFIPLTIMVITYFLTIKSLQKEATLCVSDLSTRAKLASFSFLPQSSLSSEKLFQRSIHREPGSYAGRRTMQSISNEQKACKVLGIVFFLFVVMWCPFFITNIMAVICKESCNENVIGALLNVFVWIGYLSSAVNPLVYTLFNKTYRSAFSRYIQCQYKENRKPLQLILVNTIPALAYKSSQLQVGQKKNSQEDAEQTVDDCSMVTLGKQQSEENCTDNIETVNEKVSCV
metric_name: Ki (µM)

- item_smiles: "NCC1c2ccccc2Sc2ccccc21"
  measured_on: "5-hydroxytryptamine receptor 2A (Rattus norvegicus, UniProt P14842)"
  metric_name: "Ki"
  val: 0.065
- item_smiles: "NCC1c2ccccc2CCc2ccccc21"
  measured_on: "5-hydroxytryptamine receptor 2A (Rattus norvegicus, UniProt P14842)"
  metric_name: "Ki"
  val: 0.112
- item_smiles: "CN1CCC(=C2c3ccccc3Cc3ccccc32)CC1"
  measured_on: "5-hydroxytryptamine receptor 2A (Rattus norvegicus, UniProt P14842)"
  metric_name: "Ki"
  val: 0.0007
- item_smiles: "NCC1c2ccccc2Oc2ccccc21"
  measured_on: "5-hydroxytryptamine receptor 2A (Rattus norvegicus, UniProt P14842)"
  metric_name: "Ki"
  val: 0.17

----------
biological target: 5-hydroxytryptamine receptor 2A (Rattus norvegicus, UniProt P14842); experiment: Binding affinity against 5-hydroxytryptamine 2A receptor from rat forebrain using [3H]ketanserin as radioligand
Returns: string. Value is true if measured Ki is below 10 nM, and false if it is greater than or equal to it.

- compound: "CC(=C1CCN(C)CC1)c1ccccc1"
  assigned_category: "false"
- compound: "CN1CCC(=C2c3ccccc3Sc3ccccc32)CC1 [PIMETHIXENE]"
  assigned_category: "true"
- compound: "CN1CCC(=C2c3ccccc3-c3ccccc32)CC1"
  assigned_category: "false"
- compound: "CN1CCC(=C2c3ccccc3Oc3ccccc32)CC1"
  assigned_category: "true"
- compound: "CN1CCC(=C(c2ccccc2)c2ccccc2)CC1"
  assigned_category: "false"
- compound: "CN1CCC(=C2c3ccccc3CCc3ccccc32)CC1"
  assigned_category: "true"
